method: Half life of the compound at pH 7.4 at 37 degC
Format: ADME
measure_name: half-life (h)

Example cases with answers are listed next.
>>> numeric_value("C[C@H]1[C@H](NC(=O)/C(=N\\OC(C)(C)C(=O)O)c2csc(N)n2)C(=O)N1C(=O)NS(=O)(=O)n1nc(-c2cc(=O)c(O)c[nH]2)n(CCCS(C)(=O)=O)c1=O")
93
>>> numeric_value("C[C@H]1[C@H](NC(=O)/C(=N\\OC(C)(C)C(=O)O)c2csc(N)n2)C(=O)N1C(=O)NS(=O)(=O)n1nc(-c2cc(=O)c(O)c[nH]2)n(CCC2(S(C)(=O)=O)CC2)c1=O")
94
>>> numeric_value("CC[C@@H]1[C@H](NC(=O)/C(=N\\OC(C)(C)C(=O)O)c2csc(N)n2)C(=O)N1C(=O)NS(=O)(=O)n1nc(-c2cc(=O)c(O)c[nH]2)n(CCCS(C)(=O)=O)c1=O")
94

(A) C[C@H]1[C@H](NC(=O)/C(=N\OC(C)(C)C(=O)O)c2nc(N)sc2Cl)C(=O)N1C(=O)NS(=O)(=O)n1nc(-c2cc(=O)c(O)c[nH]2)n(CCCS(C)(=O)=O)c1=O
(B) C[C@H]1[C@H](NC(=O)/C(=N\OC(C)(C)C(=O)O)c2csc(N)n2)C(=O)N1C(=O)NS(=O)(=O)n1nc(-c2cc(=O)c(O)c[nH]2)n(CCNS(C)(=O)=O)c1=O
So which one has the bigger half-life here, A or B ? In your reply, give the label of the chosen option.
A

---

method: Half life of the compound at pH 7.4 at 37 degC
Format: ADME
measure_name: half-life (h)

>>> numeric_value("C[C@H]1[C@H](NC(=O)/C(=N\\OC(C)(C)C(=O)O)c2csc(N)n2)C(=O)N1C(=O)NS(=O)(=O)n1nc(-c2cc(=O)c(O)c[nH]2)n(C[C@@H](O)CS(C)(=O)=O)c1=O")
87

(I) C=CC[C@@H]1[C@H](NC(=O)/C(=N\OC(C)(C)C(=O)O)c2csc(N)n2)C(=O)N1C(=O)NS(=O)(=O)n1nc(-c2cc(=O)c(O)c[nH]2)n(CCCS(C)(=O)=O)c1=O
(II) C=C[C@H]1[C@H](NC(=O)/C(=N\OC(C)(C)C(=O)O)c2csc(N)n2)C(=O)N1C(=O)NS(=O)(=O)n1nc(-c2cc(=O)c(O)c[nH]2)n(CCCS(C)(=O)=O)c1=O
So which one has the bigger half-life here, I or II ? In your reply, give the label of the chosen option.
I

---

method: Unbound fraction in human plasma after 16 hrs by LC-MS/MS analysis
measure_name: fraction unbound at 16 h

Example cases with answers are listed next.
>>> numeric_value("C[C@H]1[C@H](NC(=O)/C(=N\\OC(C)(C)C(=O)O)c2csc(N)n2)C(=O)N1C(=O)NS(=O)(=O)n1nc(-c2cc(=O)c(O)cn2O)n(CCS(C)(=O)=O)c1=O")
0.2
>>> numeric_value("C[C@H]1[C@H](NC(=O)/C(=N\\OC(C)(C)C(=O)O)c2csc(N)n2)C(=O)N1C(=O)NS(=O)(=O)n1nc(-c2cc(=O)c(O)c[nH]2)n(CCC2(S(C)(=O)=O)CC2)c1=O")
0.04
>>> numeric_value("Cn1c(-c2cc(=O)c(O)c[nH]2)nn(S(=O)(=O)NC(=O)N2C[C@H](NC(=O)/C(=N\\OC(C)(C)C(=O)O)c3csc(N)n3)C2=O)c1=O")
0.05

(A) C[C@H]1[C@H](NC(=O)/C(=N\OC(C)(C)C(=O)O)c2csc(N)n2)C(=O)N1C(=O)NS(=O)(=O)n1nc(-c2cc(=O)c(O)c[nH]2)n(C[C@@H](O)CO)c1=O
(B) C[C@H]1[C@H](NC(=O)/C(=N\OC(C)(C)C(=O)O)c2nc(N)sc2Cl)C(=O)N1C(=O)NS(=O)(=O)n1nc(-c2cc(=O)c(O)c[nH]2)n(CCCS(C)(=O)=O)c1=O
(C) C[C@H]1[C@H](NC(=O)/C(=N\OC(C)(C)C(=O)O)c2csc(N)n2)C(=O)N1C(=O)NS(=O)(=O)n1nc(-c2cc(=O)c(O)c[nH]2)n(CCCS(C)(=O)=O)c1=O
Sort (3 compounds) by fraction unbound at 16 h: min first. Dear reader, please state the labels in the requested order.
A, B, C
(A: 0.04, B: 0.06, C: 0.09)
